# Tested on: NCI-H23 lung
# Protocol Text: NCI-60 one-dose screen, 48 h (100 = growth as untreated, 0 = no growth, -100 = all killed)
# Measurement Context: 10 µM unless noted
This is part of a sample that, as a whole, favours compounds with a hit. Of some 83,000 tested, about 20% had one in any assay. Active and inactive are the calls of the source. The calls were made as follows: active = growth percent below 10; inactive = the rest.
Experimental Endpoint: growth

Known growth results, listed for orientation:
COc1cc(C2CC(c3ccc(Cl)cc3)=NN2C(C)=O)ccc1Oc1nc2c(c(=O)n(C)c(=O)n2C)n1C (stereo unspecified)
84.2% (inactive)
ClC1(Cl)C2CCCCCCC21 (stereo unspecified)
107% (inactive)
COc1ccc(CC2c3cc(OC)c(OC)cc3CC[N+]2(C)CCC(=O)OCCCCCOC(=O)CC[N+]2(C)CCc3cc(OC)c(OC)cc3C2Cc2ccc(OC)c(OC)c2)cc1OC (stereo unspecified)
93.4% (inactive)
CCN1C(=O)C(C)C=C(C)C=C1C (stereo unspecified)
102% (inactive)
COc1ccc(Oc2nc(Nc3ccc(N4CCOCC4)cc3)ncc2NC(=O)Nc2cccc(OC)c2)cc1
72.2% (inactive)

Consider the additional compound presented here.
Find the recorded growth belonging to COc1cc2c(cc1OC)-c1cc(OC)c(OC)cc1C(CN(C)C)C2 (stereo unspecified) and report it.
51.8% [100 µM] (inactive)
